Give kon for every item shown.
- Target or system: T1, human-CD40 monomer (human, UniProt P25942 21-193, limits assumed)
- T1 construct: also called hCD40-monomer; human-CD40-monomer protein
- T1 sequence (P25942 21-193 limits assumed): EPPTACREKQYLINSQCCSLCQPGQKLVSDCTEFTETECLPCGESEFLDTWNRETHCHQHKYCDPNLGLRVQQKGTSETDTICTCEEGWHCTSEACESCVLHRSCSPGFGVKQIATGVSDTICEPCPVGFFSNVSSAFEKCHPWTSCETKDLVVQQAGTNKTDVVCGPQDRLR
- Assay: SPR 2 pt screen, Ab on protein A
Include the unit after the number when you answer.

INSERT INTO measurements (binder, reported_value) VALUES
  ('humanized Y1238 hz44 (hz-HC9 / hz-LC4), IgG1.3f (antibody, V domains shown, IgG1.3f heavy constant, common CL; expression supernatant; also called Sup 44) VH: QVQLVQSGAEVVKPGASVKVSCKASGYAFTNYLIEWVRQRPGQGLEWMGVINPGSGGTNYNEKFKGRVTLTADKSSSTAYMQLSRLRSDDTAVYFCARSQLGRRFDYWGQGTTVTVSS VL: DIQMTQSPSSLSASVGDRVTITCKASQDVRTGVAWYQQKPGQSPKLLIYSASYRNTGVPSRFSGSRSGTDFTFTISSLQAEDIAVYYCQQHYSPPYTFGGGTKVEIK', '39000 M⁻¹ s⁻¹');

For every record below, what is its kon?
1. humanized Y1238 hz20 (hz-HC4 / hz-LC5), IgG1.3f (antibody, V domains shown, IgG1.3f heavy constant, common CL; expression supernatant; also called Sup 20) VH: QVQLVQSGAEVKKPGASVKVSCKASGYAFTNYLIEWVRQAPGQGLEWMGVINPGSGGTNYNEKFKGRVTMTADKSISTAYMELSRLRSDDTAVYYCARSQLGRRFDYWGQGTLVTVSS VL: DIQMTQSPSSLSASVGDRVTITCKASQDVRTGVAWYQQKPGQAPKLLIYSASYRNTGVPSRFSGSRSGTDFTFTISSLQPEDIAVYYCQQHYSPPYTFGGGTKVEIK
2. humanized Y1238 hz40 (hz-HC8 / hz-LC5), IgG1.3f (antibody, V domains shown, IgG1.3f heavy constant, common CL; expression supernatant; also called Sup 40) VH: QVQLVQSGAEVVKPGASVKVSCKASGYAFTNYLIEWVRQRPGQGLEWMGVINPGSGGTNYNEKFKGRVTLTADKSSSTAYMQLSRLRSDDTAVYFCARSQLGRRFDYWGQGTLVTVSS VL: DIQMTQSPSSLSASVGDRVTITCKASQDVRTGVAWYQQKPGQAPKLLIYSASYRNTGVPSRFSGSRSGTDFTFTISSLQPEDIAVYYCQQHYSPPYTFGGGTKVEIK
3. humanized Y1238 hz49 (hz-HC10 / hz-LC4), IgG1.3f (antibody, V domains shown, IgG1.3f heavy constant, common CL; expression supernatant; also called Sup 49) VH: QVQLVQSGAEVKKPGASVKVSCKASGYAFTNYLIEWVRQRPGQGLEWMGVINPGSGGTNYNEKFKGRVTMTRDKSISTAYMELSRLRSDDTAVYYCARSQLGRRFDYWGQGTLVTVSS VL: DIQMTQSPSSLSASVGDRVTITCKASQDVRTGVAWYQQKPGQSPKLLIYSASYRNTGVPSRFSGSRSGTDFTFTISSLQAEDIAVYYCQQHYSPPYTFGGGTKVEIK
4. humanized Y1238 hz2 (hz-HC1 / hz-LC2), IgG1.3f (antibody, V domains shown, IgG1.3f heavy constant, common CL; expression supernatant; also called Sup 2) VH: QVQLVQSGAEVKKPGASVKVSCKASGYAFTNYLIEWVRQAPGQGLEWMGVINPGSGGTNYNEKFKGRVTMTRDTSISTAYMELSRLRSDDTAVYYCARSQLGRRFDYWGQGTLVTVSS VL: DIQMTQSPSSLSASVGDRVTITCKASQDVRTGVAWYQQKPGKAPKLLIYSASYRNTGVPSRFSGSRSGTDFTFTISSLQPEDIATYYCQQHYSPPYTFGGGTKVEIK

output:
1: 45000 M⁻¹ s⁻¹; 2: 39000 M⁻¹ s⁻¹; 3: 39000 M⁻¹ s⁻¹; 4: 45000 M⁻¹ s⁻¹
